EXPERIMENTAL SYSTEM: UniProt Q8TD19
Sequence (Q8TD19 whole entry, looked up): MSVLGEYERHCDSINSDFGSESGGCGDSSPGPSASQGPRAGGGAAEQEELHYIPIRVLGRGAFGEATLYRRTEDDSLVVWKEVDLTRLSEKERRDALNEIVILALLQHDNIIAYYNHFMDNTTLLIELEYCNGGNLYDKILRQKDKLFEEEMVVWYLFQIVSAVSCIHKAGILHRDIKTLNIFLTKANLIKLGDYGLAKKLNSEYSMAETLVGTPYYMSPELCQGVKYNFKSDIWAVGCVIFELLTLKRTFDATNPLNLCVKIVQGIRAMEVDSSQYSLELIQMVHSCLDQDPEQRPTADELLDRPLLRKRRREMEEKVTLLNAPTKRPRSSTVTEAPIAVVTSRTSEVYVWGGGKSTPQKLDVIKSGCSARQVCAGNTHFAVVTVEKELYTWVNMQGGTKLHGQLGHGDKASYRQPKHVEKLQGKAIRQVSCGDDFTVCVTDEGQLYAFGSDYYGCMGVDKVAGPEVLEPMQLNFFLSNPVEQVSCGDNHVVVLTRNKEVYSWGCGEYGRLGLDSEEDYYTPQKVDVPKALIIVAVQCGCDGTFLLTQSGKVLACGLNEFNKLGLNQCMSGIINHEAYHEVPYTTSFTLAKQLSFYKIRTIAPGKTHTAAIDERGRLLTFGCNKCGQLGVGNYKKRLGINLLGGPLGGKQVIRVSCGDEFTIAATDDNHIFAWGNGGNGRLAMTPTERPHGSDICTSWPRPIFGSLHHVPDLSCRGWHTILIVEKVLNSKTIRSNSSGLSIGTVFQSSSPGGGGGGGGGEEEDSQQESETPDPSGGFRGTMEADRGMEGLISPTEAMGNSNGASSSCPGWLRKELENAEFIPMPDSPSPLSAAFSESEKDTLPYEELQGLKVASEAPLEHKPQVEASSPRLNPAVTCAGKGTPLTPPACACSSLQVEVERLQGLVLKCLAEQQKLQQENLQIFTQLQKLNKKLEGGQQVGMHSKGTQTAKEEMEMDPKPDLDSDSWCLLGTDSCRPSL
PROTOCOL: KINOMEscan competition binding
DETAILS: compound 10.0 µM
VALUE TYPE: kinase still bound, per cent of control (%)

{"MOLECULE": "C=CC(=O)Nc1cccc(Oc2nc(Nc3ccc(N4CCN(C)CC4)cc3OC)ncc2Cl)c1", "MEASURE UNIT": "%", "REPORTED MEASUREMENT": 100}
{"MOLECULE": "O=C(NOC[C@H](O)CO)c1ccc(F)c(F)c1Nc1ccc(I)cc1F", "MEASURE UNIT": "%", "REPORTED MEASUREMENT": 82}
{"MOLECULE": "CCOc1cc2ncc(C#N)c(Nc3ccc(OCc4ccccn4)c(Cl)c3)c2cc1NC(=O)/C=C/CN(C)C", "MEASURE UNIT": "%", "REPORTED MEASUREMENT": 100}
{"MOLECULE": "C=CC(=O)Nc1cccc(Nc2nc(N[C@H]3CC[C@H](N(C)C)CC3)nc3c2ncn3C(C)C)c1", "MEASURE UNIT": "%", "REPORTED MEASUREMENT": 100}
{"MOLECULE": "Nc1ccc(-c2ccc3ncc4ccc(=O)n(-c5cccc(C(F)(F)F)c5)c4c3c2)cn1", "MEASURE UNIT": "%", "REPORTED MEASUREMENT": 100}
{"MOLECULE": "CCN1CCN(Cc2ccc(Nc3ncc4c(n3)N(C)c3ccccc3C(=O)N4C)cc2C(F)(F)F)CC1", "MEASURE UNIT": "%", "REPORTED MEASUREMENT": 72}
{"MOLECULE": "CCC(=O)N1CCN(c2ccc(-n3c(=O)ccc4cnc5ccc(-c6cnc7ccccc7c6)cc5c43)cc2C(F)(F)F)CC1", "MEASURE UNIT": "%", "REPORTED MEASUREMENT": 100}
{"MOLECULE": "O=C(O)c1ccc(Nc2ncc3c(n2)-c2ccc(Cl)cc2C(c2c(F)cccc2F)=NC3)cc1", "MEASURE UNIT": "%", "REPORTED MEASUREMENT": 100}
{"MOLECULE": "Cc1cc([C@@H](C)Nc2ccccc2C(=O)O)c2nc(N3CCOCC3)cc(=O)n2c1", "MEASURE UNIT": "%", "REPORTED MEASUREMENT": 100}
{"MOLECULE": "C=CC(=O)Nc1cc(NC(=O)c2ccc(C)c(NC(=O)c3ccno3)c2)cc(C(F)(F)F)c1", "MEASURE UNIT": "%", "REPORTED MEASUREMENT": 100}
{"MOLECULE": "COc1cc(C(=O)NC2CCN(C)CC2)ccc1Nc1ncc2c(n1)N(C1CCCC1)CCC(=O)N2C(C)C", "MEASURE UNIT": "%", "REPORTED MEASUREMENT": 100}
{"MOLECULE": "CN(C)C/C=C/C(=O)Nc1cccc(Nc2ncc3c(n2)N(C)c2ccccc2C(=O)N3C)c1", "MEASURE UNIT": "%", "REPORTED MEASUREMENT": 93}
{"MOLECULE": "C[C@@H](Oc1cc(-n2cnc3ccc(CN4CCN(C)CC4)cc32)sc1C(N)=O)c1ccccc1C(F)(F)F", "MEASURE UNIT": "%", "REPORTED MEASUREMENT": 10}
{"MOLECULE": "O=C(NC1CC1)c1cccc(-c2ccc3c(NC(=O)C4CC4)n[nH]c3c2)c1", "MEASURE UNIT": "%", "REPORTED MEASUREMENT": 100}
{"MOLECULE": "OCCCNc1cc(-c2ccnc(Nc3cccc(Cl)c3)n2)ccn1", "MEASURE UNIT": "%", "REPORTED MEASUREMENT": 100}
{"MOLECULE": "Cc1ccc(C(=O)Nc2cccc(C(F)(F)F)c2)cc1Nc1cncc(C(N)=O)c1", "MEASURE UNIT": "%", "REPORTED MEASUREMENT": 100}
{"MOLECULE": "CC[C@@H]1C(=O)N(C)c2cnc(Nc3ccc(C(=O)NC4CCN(C)CC4)cc3OC)nc2N1C1CCCC1", "MEASURE UNIT": "%", "REPORTED MEASUREMENT": 100}
{"MOLECULE": "CCCS(=O)(=O)Nc1ccc(F)c(C(=O)c2c[nH]c3ncc(-c4ccc(Cl)cc4)cc23)c1F", "MEASURE UNIT": "%", "REPORTED MEASUREMENT": 98}
{"MOLECULE": "Cc1ccc(NC(=O)c2cccc(C(C)(C)C#N)c2)cc1Nc1ccc2ncn(C)c(=O)c2c1", "MEASURE UNIT": "%", "REPORTED MEASUREMENT": 100}
{"MOLECULE": "N#Cc1c(NC(=O)c2cccc3ccccc23)sc2c1CCCC2", "MEASURE UNIT": "%", "REPORTED MEASUREMENT": 70}
{"MOLECULE": "O=C1Nc2ccc(I)cc2/C1=C/c1cc(Br)c(O)c(Br)c1", "MEASURE UNIT": "%", "REPORTED MEASUREMENT": 100}
{"MOLECULE": "Cn1c(=O)n(-c2ccc(C(C)(C)C#N)cc2)c2c3cc(-c4cnc5ccccc5c4)ccc3ncc21", "MEASURE UNIT": "%", "REPORTED MEASUREMENT": 100}
{"MOLECULE": "COc1cc(N2CCN(C)CC2)ccc1Nc1nc(N)c(C(=O)c2c(Cl)cccc2Cl)s1", "MEASURE UNIT": "%", "REPORTED MEASUREMENT": 100}
{"MOLECULE": "Cc1ccc2nc(NCCN)c3ncc(C)n3c2c1", "MEASURE UNIT": "%", "REPORTED MEASUREMENT": 100}
{"MOLECULE": "COc1cc(C(=O)NC2CCN(C)CC2)ccc1Nc1ncc2c(n1)N(C1CCCC1)C(C)CC(=O)N2C (stereo not given)", "MEASURE UNIT": "%", "REPORTED MEASUREMENT": 100}

The measured values listed here are drawn from the kinase profiling compilation of Christmann-Franck et al. (2016).
